target: NACHT, LRR and PYD domains-containing protein 3 (Mus musculus, UniProt Q8R4B8); assay: Inhibition of NLRP3 inflammasome activation in LPS-primed C57BL/6 mouse bone marrow derived macrophages preincubated for 15 mins followed by addition of ATP and measured after 1 hr by ELISA
Sequence (Q8R4B8 whole entry, the tested form may be a part): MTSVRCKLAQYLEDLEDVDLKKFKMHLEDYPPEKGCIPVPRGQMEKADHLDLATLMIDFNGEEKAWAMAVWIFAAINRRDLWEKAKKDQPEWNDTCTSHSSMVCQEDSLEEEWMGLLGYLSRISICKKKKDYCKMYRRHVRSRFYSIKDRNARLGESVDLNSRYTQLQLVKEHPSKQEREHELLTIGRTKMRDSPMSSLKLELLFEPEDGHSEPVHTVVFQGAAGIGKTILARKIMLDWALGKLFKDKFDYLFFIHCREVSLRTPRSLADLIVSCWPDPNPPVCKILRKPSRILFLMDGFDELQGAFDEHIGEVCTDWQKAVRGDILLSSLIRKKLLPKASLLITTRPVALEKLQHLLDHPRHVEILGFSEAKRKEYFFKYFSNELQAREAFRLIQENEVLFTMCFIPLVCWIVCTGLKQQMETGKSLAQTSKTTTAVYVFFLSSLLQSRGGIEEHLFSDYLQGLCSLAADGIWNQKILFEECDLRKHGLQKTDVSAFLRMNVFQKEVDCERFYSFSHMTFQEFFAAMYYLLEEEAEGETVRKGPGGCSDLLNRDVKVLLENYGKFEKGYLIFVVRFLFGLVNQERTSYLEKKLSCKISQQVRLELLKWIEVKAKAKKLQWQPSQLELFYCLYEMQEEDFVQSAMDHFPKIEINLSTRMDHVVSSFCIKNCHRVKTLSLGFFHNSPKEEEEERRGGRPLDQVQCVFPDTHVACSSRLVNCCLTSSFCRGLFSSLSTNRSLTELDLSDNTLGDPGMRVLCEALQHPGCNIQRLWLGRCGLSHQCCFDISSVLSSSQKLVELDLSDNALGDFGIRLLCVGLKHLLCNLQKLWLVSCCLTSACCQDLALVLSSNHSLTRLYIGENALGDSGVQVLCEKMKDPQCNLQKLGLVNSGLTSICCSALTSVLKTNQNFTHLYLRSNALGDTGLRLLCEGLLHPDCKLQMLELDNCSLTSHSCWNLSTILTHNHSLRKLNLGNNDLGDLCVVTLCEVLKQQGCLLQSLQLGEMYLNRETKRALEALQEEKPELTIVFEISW
Metric Name: pIC50
pIC50 is defined as minus the log10 of a concentration measured in mol/L.

(Q) Report pIC50 for Cc1cccc(Nc2ccccc2C(=O)O)c1C [MEFENAMIC ACID] please.
(A) 4.60

====

target: NACHT, LRR and PYD domains-containing protein 3 (Mus musculus, UniProt Q8R4B8); test: Inhibition of NLRP3 inflammasome activation in LPS-primed mouse bone marrow derived macrophages incubated for 1 hr followed by addition of ATP and measured after 1 hr by immunoblotting analysis
Metric Name: pIC50
Note on pIC50: it is the negative log10 of concentration, concentration in mol/L.

(Q) Which pIC50 is listed for CC1CC(=O)c2s/c(=N\C3CCCCC3)oc2C1 (stereo unspecified) ?
(A) 5.89

Ref: ChEMBL document CHEMBL4321841
